Listed here: items and their measured IC50.
biological target: human PCSK9 (Homo sapiens, UniProt Q8NBP7); test: PCSK9 ligand binding assay (TR-FRET): interference with binding of human PCSK9 to human LDLR; conditions: Human PCSK9 Alexa Fluor 647 / Human LDLR extracellular domain-Europium Kryptate
Sequence (Q8NBP7 153-692): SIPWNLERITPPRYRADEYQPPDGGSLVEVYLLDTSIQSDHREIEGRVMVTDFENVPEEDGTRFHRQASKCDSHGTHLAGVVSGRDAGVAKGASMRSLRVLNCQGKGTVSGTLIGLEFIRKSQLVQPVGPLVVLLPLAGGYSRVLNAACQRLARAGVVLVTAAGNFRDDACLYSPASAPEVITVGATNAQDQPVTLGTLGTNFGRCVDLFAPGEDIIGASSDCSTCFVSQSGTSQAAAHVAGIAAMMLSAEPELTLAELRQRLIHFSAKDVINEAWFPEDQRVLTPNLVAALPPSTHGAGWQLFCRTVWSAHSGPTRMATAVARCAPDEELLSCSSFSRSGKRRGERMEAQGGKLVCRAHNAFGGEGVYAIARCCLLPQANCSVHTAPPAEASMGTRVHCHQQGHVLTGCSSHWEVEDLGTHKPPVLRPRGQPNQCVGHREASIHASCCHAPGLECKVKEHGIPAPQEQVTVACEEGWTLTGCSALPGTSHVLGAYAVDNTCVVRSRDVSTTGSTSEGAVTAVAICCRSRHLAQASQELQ
Sequence (Q8NBP7 31-152 partner limits assumed): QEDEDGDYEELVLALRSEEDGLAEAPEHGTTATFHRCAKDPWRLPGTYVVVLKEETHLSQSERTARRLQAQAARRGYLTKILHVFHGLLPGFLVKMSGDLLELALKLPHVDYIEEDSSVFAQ
Write the value in nM as a bare number.

Write down the reported IC50 of C[C@H]1C(=O)N[C@@H](CO)C(=O)N[C@@]2(Cc3ccc(Cl)cc3)CCCN(C2)C(=O)[C@H](CC(F)(F)F)CC(=O)N1Cc1ccc(Cl)cc1Oc1ccc(-c2cnc(CN(C)C(C)(C)C)n2C)cc1 , test system: human PCSK9 (Homo sapiens, UniProt Q8NBP7).
1.28

Record lookup: for human PCSK9 (Homo sapiens, UniProt Q8NBP7), what IC50 belongs to COC[C@@H]1NC(=O)[C@H](C)N(Cc2ccc(Cl)cc2Oc2ccc(-c3cnc(CN(C)C)n3C)cc2)C(=O)C[C@@H](Cc2ccccc2)C(=O)N2CCC[C@@](Cc3ccc(Cl)cc3)(C2)N(C)C1=O ?
0.621

Requested read-out IC50, target or system human PCSK9 (Homo sapiens, UniProt Q8NBP7), entry COC[C@@H]1NC(=O)[C@H](C)N(Cc2ccc(Cl)cc2Oc2ccc(-c3cnc(CN(C)C)n3C)cc2)C(=O)C[C@@H](Cc2cccc(C)n2)C(=O)N2CCC[C@@](Cc3ccc(Cl)cc3)(C2)N(C)C1=O
0.715

Cited source: patent US11813306B2
